test: Pharmacokinetics in male CD1 mice, oral administration; type: in vivo, mouse; details: mouse, oral 10 mg/kg, whole blood
I'd appreciate it if you could supply AUC(0-t) values for the items below.
Answers are plain numbers, in ng·h/mL.

Worked cases, answers included:
• Cc1sc2c(c1C)C(c1ccc(C#N)cc1)=N[C@@H](CC(=O)NCC(F)F)c1nnc(C)n1-2 = 3630
• Cc1sc2c(c1C)C(c1ccc(C#N)cc1)=N[C@@H](CC(=O)NC[C@H](C)O)c1nnc(C)n1-2 = 512

Continue with the next compound.
Kindly note the recorded AUC(0-t) for COC(=O)C[C@@H]1N=C(c2ccc(Cl)cc2)c2c(sc(CC#N)c2C)-n2c(C)nnc21 , which is 5520
